B1: TRIM14 (parent)
chain: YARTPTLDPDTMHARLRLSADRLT

Variants of: B1
Assay Details: protein stability index of a GFP-peptide fusion (GPS, HEK-293T) (PSI 1-6); higher = more stable;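 also: lentivirally expressed fusions sorted by FACS into six bins by GFP to DsRed ratio, PSI derived from sequencing read proportions per bin multiplied by bin number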
Run Conditions: c terminus: a fixed tail appended
Quick reference for protein stability index among some variants
The answer should be written as a number, with no unit following it.

YARTGTLDPDTMHARLRLSADRLT [P5G]    2.88

Form: variant = YARTPTLDPNTMHARLRLSADRLT [D10N] ; protein stability index = 3.23

Form: variant = YARTPTLDPDTMHARLRMSADRLT [L18M] ; protein stability index = 2.65

Form: variant = YARTPTLDPDTMLARLRLSADRLT [H13L] ; protein stability index = 2.61

Form: variant = YARTPTLDPATMHARLRLSADRLT [D10A] ; protein stability index = 1.98

Form: variant = YARTPTLDPDTMHARLRLSADLLT [R22L] ; protein stability index = 2.68

Form: variant = YARTPTLDPDTMHARLRLSADFLT [R22F] ; protein stability index = 2.52
